Biological target: TLR1/TLR2 (Mus musculus, UniProt Q9EPQ1+Q9QUN7)
Sequence (Q9EPQ1 26-795): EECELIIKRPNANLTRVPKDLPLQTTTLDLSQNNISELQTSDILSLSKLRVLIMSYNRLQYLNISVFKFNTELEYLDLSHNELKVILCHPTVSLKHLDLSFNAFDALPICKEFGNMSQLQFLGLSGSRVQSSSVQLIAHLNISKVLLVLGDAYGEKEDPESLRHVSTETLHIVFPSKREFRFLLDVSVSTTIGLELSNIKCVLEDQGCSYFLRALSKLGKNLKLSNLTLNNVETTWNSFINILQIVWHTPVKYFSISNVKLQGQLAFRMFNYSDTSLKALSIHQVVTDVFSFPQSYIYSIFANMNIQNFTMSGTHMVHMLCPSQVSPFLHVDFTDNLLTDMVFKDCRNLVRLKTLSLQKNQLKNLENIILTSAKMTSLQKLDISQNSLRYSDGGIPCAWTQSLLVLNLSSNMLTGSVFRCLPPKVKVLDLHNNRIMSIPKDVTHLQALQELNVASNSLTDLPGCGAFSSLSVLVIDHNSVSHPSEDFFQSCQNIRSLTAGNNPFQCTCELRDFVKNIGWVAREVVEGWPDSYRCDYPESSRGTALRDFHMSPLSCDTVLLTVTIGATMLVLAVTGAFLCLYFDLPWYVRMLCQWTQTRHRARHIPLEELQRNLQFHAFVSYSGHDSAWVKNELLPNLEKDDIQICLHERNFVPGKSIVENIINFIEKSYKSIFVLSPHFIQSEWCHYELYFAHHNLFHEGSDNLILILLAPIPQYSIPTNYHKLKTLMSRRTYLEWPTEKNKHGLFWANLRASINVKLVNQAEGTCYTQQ
Sequence (Q9QUN7 25-784): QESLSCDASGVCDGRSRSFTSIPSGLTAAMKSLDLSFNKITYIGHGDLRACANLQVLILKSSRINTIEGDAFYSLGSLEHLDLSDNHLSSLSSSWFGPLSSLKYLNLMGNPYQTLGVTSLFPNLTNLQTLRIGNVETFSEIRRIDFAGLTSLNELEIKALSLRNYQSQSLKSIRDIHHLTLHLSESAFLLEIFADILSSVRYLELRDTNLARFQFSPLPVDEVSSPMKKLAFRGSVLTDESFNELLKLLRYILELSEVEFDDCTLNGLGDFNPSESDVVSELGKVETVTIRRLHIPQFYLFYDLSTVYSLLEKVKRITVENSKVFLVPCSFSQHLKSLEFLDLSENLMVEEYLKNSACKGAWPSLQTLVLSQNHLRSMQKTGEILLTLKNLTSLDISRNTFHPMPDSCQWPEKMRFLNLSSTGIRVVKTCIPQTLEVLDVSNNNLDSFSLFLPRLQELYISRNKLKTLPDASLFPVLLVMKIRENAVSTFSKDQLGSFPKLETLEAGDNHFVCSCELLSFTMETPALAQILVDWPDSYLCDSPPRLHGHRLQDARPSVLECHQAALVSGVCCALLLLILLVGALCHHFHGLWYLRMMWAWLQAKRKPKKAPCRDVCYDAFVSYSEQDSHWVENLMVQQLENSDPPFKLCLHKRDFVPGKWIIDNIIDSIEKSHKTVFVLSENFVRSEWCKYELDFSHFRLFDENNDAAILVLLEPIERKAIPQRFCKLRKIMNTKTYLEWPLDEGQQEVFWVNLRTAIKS
Experiment: TNF-α release from thioglycolate-elicited mouse peritoneal macrophages (ELISA)
Conditions: 4 h, read-out: Efficacy (magnitude) of response versus diprovocim-1 (100%), mouse macrophages
measurement_kind: Emax (%)

Please review the entries below; each comes with its answer.
Form field: reported Emax of `O=C(NCCCCCCCCc1ccc(O)cc1)[C@@H]1CN(C(=O)c2ccc(C(=O)N3C[C@@H](C(=O)N[C@H]4C[C@@H]4c4ccccc4)[C@H](C(=O)N[C@H]4C[C@@H]4c4ccccc4)C3)cc2)C[C@H]1C(=O)N[C@H]1C[C@@H]1c1ccccc1` 380

Form field: reported Emax of `CC(C)(C)OC(=O)NCC(=O)NCC(=O)OCCCCCCCCCCCCNC(=O)[C@@H]1CN(C(=O)c2ccc(C(=O)N3C[C@@H](C(=O)N[C@H]4C[C@@H]4c4ccccc4)[C@H](C(=O)N[C@H]4C[C@@H]4c4ccccc4)C3)cc2)C[C@H]1C(=O)N[C@H]1C[C@@H]1c1ccccc1` 110

A = CC(C)(C)OC(=O)COCCCCCCCCCCCCNC(=O)[C@@H]1CN(C(=O)c2ccc(C(=O)N3C[C@@H](C(=O)N[C@H]4C[C@@H]4c4ccccc4)[C@H](C(=O)N[C@H]4C[C@@H]4c4ccccc4)C3)cc2)C[C@H]1C(=O)N[C@H]1C[C@@H]1c1ccccc1
B = C#CCN(C)CC(=O)OCCCCCCCCCCCCNC(=O)[C@@H]1CN(C(=O)c2ccc(C(=O)N3C[C@@H](C(=O)N[C@H]4C[C@@H]4c4ccccc4)[C@H](C(=O)N[C@H]4C[C@@H]4c4ccccc4)C3)cc2)C[C@H]1C(=O)N[C@H]1C[C@@H]1c1ccccc1
Rank A against B by their Emax values and give the higher one. Lab log: write the label of the selected item as the result. A

----------
Target: TLR1/TLR2 (Mus musculus, UniProt Q9EPQ1+Q9QUN7)
Test: TNF-α release from thioglycolate-elicited mouse peritoneal macrophages (ELISA)
Details: 4 h, read-out: Efficacy (magnitude) of response versus diprovocim-1 (100%), mouse macrophages
measurement_kind: Emax (%)

Please review the entries below; each comes with its answer.
Form field: reported Emax of `CC(C)(C)OC(=O)c1ccc(C(=O)OCCCCCCCCCCCCNC(=O)[C@@H]2CN(C(=O)c3ccc(C(=O)N4C[C@@H](C(=O)N[C@H]5C[C@@H]5c5ccccc5)[C@H](C(=O)N[C@H]5C[C@@H]5c5ccccc5)C4)cc3)C[C@H]2C(=O)N[C@H]2C[C@@H]2c2ccccc2)cc1` 190

Form field: reported Emax of `O=C(O)CNC(=O)CCCCCCCCCCCNC(=O)[C@@H]1CN(C(=O)c2ccc(C(=O)N3C[C@@H](C(=O)N[C@H]4C[C@@H]4c4ccccc4)[C@H](C(=O)N[C@H]4C[C@@H]4c4ccccc4)C3)cc2)C[C@H]1C(=O)N[C@H]1C[C@@H]1c1ccccc1` 30

Form field: reported Emax of `Cc1ccc(S(=O)(=O)n2cnc(C[C@H](NC(=O)OC(C)(C)C)C(=O)OCCCCCCCCCCCCNC(=O)[C@@H]3CN(C(=O)c4ccc(C(=O)N5C[C@@H](C(=O)N[C@H]6C[C@@H]6c6ccccc6)[C@H](C(=O)N[C@H]6C[C@@H]6c6ccccc6)C5)cc4)C[C@H]3C(=O)N[C@H]3C[C@@H]3c3ccccc3)c2)cc1` 110

A = NC(=O)CCCCCCCCCCCNC(=O)[C@@H]1CN(C(=O)c2ccc(C(=O)N3C[C@@H](C(=O)N[C@H]4C[C@@H]4c4ccccc4)[C@H](C(=O)N[C@H]4C[C@@H]4c4ccccc4)C3)cc2)C[C@H]1C(=O)N[C@H]1C[C@@H]1c1ccccc1
B = CC(C)(C)OC(=O)Nc1ccc(C(=O)OCCCCCCCCCCCCNC(=O)[C@@H]2CN(C(=O)c3ccc(C(=O)N4C[C@@H](C(=O)N[C@H]5C[C@@H]5c5ccccc5)[C@H](C(=O)N[C@H]5C[C@@H]5c5ccccc5)C4)cc3)C[C@H]2C(=O)N[C@H]2C[C@@H]2c2ccccc2)cc1
Rank A against B by their Emax values and give the higher one. Lab log: write the label of the selected item as the result. B
(B: 540%, A: 120%)

----------
Molecular target: TLR1/TLR2 (Mus musculus, UniProt Q9EPQ1+Q9QUN7)
Assay: TNF-α release from thioglycolate-elicited mouse peritoneal macrophages (ELISA)
Details: 4 h, read-out: Efficacy (magnitude) of response versus diprovocim-1 (100%), mouse macrophages
measurement_kind: Emax (%)

Please review the entries below; each comes with its answer.
Form field: reported Emax of `O=C(OCCCCCCCCCCCCNC(=O)[C@@H]1CN(C(=O)c2ccc(C(=O)N3C[C@@H](C(=O)N[C@H]4C[C@@H]4c4ccccc4)[C@H](C(=O)N[C@H]4C[C@@H]4c4ccccc4)C3)cc2)C[C@H]1C(=O)N[C@H]1C[C@@H]1c1ccccc1)c1ccc(O)cc1` 540

Form field: reported Emax of `O=C(CO)OCCCCCCCCCCCCNC(=O)[C@@H]1CN(C(=O)c2ccc(C(=O)N3C[C@@H](C(=O)N[C@H]4C[C@@H]4c4ccccc4)[C@H](C(=O)N[C@H]4C[C@@H]4c4ccccc4)C3)cc2)C[C@H]1C(=O)N[C@H]1C[C@@H]1c1ccccc1` 140

I = C[C@@H](NC(=O)OC(C)(C)C)C(=O)OCCCCCCCCCCCCNC(=O)[C@@H]1CN(C(=O)c2ccc(C(=O)N3C[C@@H](C(=O)N[C@H]4C[C@@H]4c4ccccc4)[C@H](C(=O)N[C@H]4C[C@@H]4c4ccccc4)C3)cc2)C[C@H]1C(=O)N[C@H]1C[C@@H]1c1ccccc1
II = CC[C@H](C)[C@H](NC(=O)OC(C)(C)C)C(=O)OCCCCCCCCCCCCNC(=O)[C@@H]1CN(C(=O)c2ccc(C(=O)N3C[C@@H](C(=O)N[C@H]4C[C@@H]4c4ccccc4)[C@H](C(=O)N[C@H]4C[C@@H]4c4ccccc4)C3)cc2)C[C@H]1C(=O)N[C@H]1C[C@@H]1c1ccccc1
III = CC(C)(C)OC(=O)NCC(=O)NCCCCCCCCCCCCNC(=O)[C@@H]1CN(C(=O)c2ccc(C(=O)N3C[C@@H](C(=O)N[C@H]4C[C@@H]4c4ccccc4)[C@H](C(=O)N[C@H]4C[C@@H]4c4ccccc4)C3)cc2)C[C@H]1C(=O)N[C@H]1C[C@@H]1c1ccccc1
List the 3 entries from lowest Emax to highest Emax value. To answer, arrange all of the labels according to the requested order. III, II, I

1 = CC(C)(C)OC(=O)c1ccc(C(=O)NCCOCCCCCCCCCCCCNC(=O)[C@@H]2CN(C(=O)c3ccc(C(=O)N4C[C@@H](C(=O)N[C@H]5C[C@@H]5c5ccccc5)[C@H](C(=O)N[C@H]5C[C@@H]5c5ccccc5)C4)cc3)C[C@H]2C(=O)N[C@H]2C[C@@H]2c2ccccc2)cc1
2 = O=C(NCCCCCCCCCCO)[C@@H]1CN(C(=O)c2ccc(C(=O)N3C[C@@H](C(=O)N[C@H]4C[C@@H]4c4ccccc4)[C@H](C(=O)N[C@H]4C[C@@H]4c4ccccc4)C3)cc2)C[C@H]1C(=O)N[C@H]1C[C@@H]1c1ccccc1
# compare Emax for 1 vs 2 ; return the one with the smaller value Lab log: write the label of the selected item as the result. 2

----------
Biological target: TLR1/TLR2 (Mus musculus, UniProt Q9EPQ1+Q9QUN7)
Assay: TNF-α release from thioglycolate-elicited mouse peritoneal macrophages (ELISA)
Details: read-out: EC50 (nM) (mouse): EC50 TNF-α release from mouse macrophages; Table 1
measurement_kind: EC50 (nM)

a = O=C(NCc1ccc(F)cc1)[C@@H]1CN(C(=O)c2ccc(C(=O)N3C[C@@H](C(=O)N[C@H]4C[C@@H]4c4ccccc4)[C@H](C(=O)N[C@H]4C[C@@H]4c4ccccc4)C3)cc2)C[C@H]1C(=O)N[C@H]1C[C@@H]1c1ccccc1 [Compound 24]
b = O=C(NCCCCCCO)[C@@H]1CN(C(=O)c2ccc(C(=O)N3C[C@@H](C(=O)N[C@H]4C[C@@H]4c4ccccc4)[C@H](C(=O)N[C@H]4C[C@@H]4c4ccccc4)C3)cc2)C[C@H]1C(=O)N[C@H]1C[C@@H]1c1ccccc1 [Compound 10]
c = COC(=O)CCCCCCCCCCCNC(=O)[C@@H]1CN(C(=O)c2ccc(C(=O)N3C[C@@H](C(=O)N[C@H]4C[C@@H]4c4ccccc4)[C@H](C(=O)N[C@H]4C[C@@H]4c4ccccc4)C3)cc2)C[C@H]1C(=O)N[C@H]1C[C@@H]1c1ccccc1 [Compound 3]
Arrange the 3 compounds from largest to smallest EC50. To answer, arrange all of the labels according to the requested order. b, a, c

----------
Target: TLR1/TLR2 (Mus musculus, UniProt Q9EPQ1+Q9QUN7)
Experiment: TNF-α release from thioglycolate-elicited mouse peritoneal macrophages (ELISA)
Conditions: read-out: EC50 (nM) (mouse): EC50 TNF-α release from mouse macrophages; Table 6
measurement_kind: EC50 (nM)

Give the reported EC50 for `O=C(O)c1ccc(C(=O)NCCOCCCCCCCCCCCCNC(=O)[C@@H]2CN(C(=O)c3ccc(C(=O)N4C[C@@H](C(=O)N[C@H]5C[C@@H]5c5ccccc5)[C@H](C(=O)N[C@H]5C[C@@H]5c5ccccc5)C4)cc3)C[C@H]2C(=O)N[C@H]2C[C@@H]2c2ccccc2)cc1` (system: TLR1/TLR2 (Mus musculus, UniProt Q9EPQ1+Q9QUN7)). 49

A = O=C(O)/C=C/C(=O)NCC(=O)OCCCCCCCCCCCCNC(=O)[C@@H]1CN(C(=O)c2ccc(C(=O)N3C[C@@H](C(=O)N[C@H]4C[C@@H]4c4ccccc4)[C@H](C(=O)N[C@H]4C[C@@H]4c4ccccc4)C3)cc2)C[C@H]1C(=O)N[C@H]1C[C@@H]1c1ccccc1
B = CC(C)(C)OC(=O)/C=C/C(=O)NCC(=O)OCCCCCCCCCCCCNC(=O)[C@@H]1CN(C(=O)c2ccc(C(=O)N3C[C@@H](C(=O)N[C@H]4C[C@@H]4c4ccccc4)[C@H](C(=O)N[C@H]4C[C@@H]4c4ccccc4)C3)cc2)C[C@H]1C(=O)N[C@H]1C[C@@H]1c1ccccc1
C = CC(C)(C)Oc1ccc(C(=O)OCCCCCCCCCCCCNC(=O)[C@@H]2CN(C(=O)c3ccc(C(=O)N4C[C@@H](C(=O)N[C@H]5C[C@@H]5c5ccccc5)[C@H](C(=O)N[C@H]5C[C@@H]5c5ccccc5)C4)cc3)C[C@H]2C(=O)N[C@H]2C[C@@H]2c2ccccc2)cc1
List the 3 entries from lowest EC50 to highest EC50 value. To answer, arrange all of the labels according to the requested order. A, B, C
(A: 7 nM, B: 62 nM, C: 540 nM)
